Species on record: Homo sapiens
Test: Selectivity ratio of IC50 for human recombinant PDE4A4 to IC50 for human recombinant PDE7A1
MEASUREMENT TYPE: Ratio IC50

Below, 2 compounds whose answers are already recorded.
STRUCTURE NOTATION | ENDPOINT RESULT
CC(=O)Nc1ccc(NC(=O)c2cn(Cc3c(F)cccc3Cl)c3ccc(=O)[nH]c3c2=O)cc1 | 6
CS(=O)(=O)c1ccc(NC(=O)c2cn(Cc3c(F)cccc3Cl)c3ccc(=O)[nH]c3c2=O)cc1 | 6

(1) NS(=O)(=O)c1ccc(NC(=O)c2cn(Cc3c(F)cccc3Cl)c3ccc(=O)[nH]c3c2=O)cc1
(2) CN(C)c1ccc(NC(=O)c2cn(Cc3c(F)cccc3Cl)c3ccc(=O)[nH]c3c2=O)cc1
Could you point out whether the larger Ratio IC50 belongs to 1 or to 2 ? Could you answer with the label of the item you picked?
1
(1: 19, 2: 6)

* * *

Target: cGMP-inhibited 3',5'-cyclic phosphodiesterase 3A (Homo sapiens, UniProt Q14432)
Sequence (Q14432 whole entry): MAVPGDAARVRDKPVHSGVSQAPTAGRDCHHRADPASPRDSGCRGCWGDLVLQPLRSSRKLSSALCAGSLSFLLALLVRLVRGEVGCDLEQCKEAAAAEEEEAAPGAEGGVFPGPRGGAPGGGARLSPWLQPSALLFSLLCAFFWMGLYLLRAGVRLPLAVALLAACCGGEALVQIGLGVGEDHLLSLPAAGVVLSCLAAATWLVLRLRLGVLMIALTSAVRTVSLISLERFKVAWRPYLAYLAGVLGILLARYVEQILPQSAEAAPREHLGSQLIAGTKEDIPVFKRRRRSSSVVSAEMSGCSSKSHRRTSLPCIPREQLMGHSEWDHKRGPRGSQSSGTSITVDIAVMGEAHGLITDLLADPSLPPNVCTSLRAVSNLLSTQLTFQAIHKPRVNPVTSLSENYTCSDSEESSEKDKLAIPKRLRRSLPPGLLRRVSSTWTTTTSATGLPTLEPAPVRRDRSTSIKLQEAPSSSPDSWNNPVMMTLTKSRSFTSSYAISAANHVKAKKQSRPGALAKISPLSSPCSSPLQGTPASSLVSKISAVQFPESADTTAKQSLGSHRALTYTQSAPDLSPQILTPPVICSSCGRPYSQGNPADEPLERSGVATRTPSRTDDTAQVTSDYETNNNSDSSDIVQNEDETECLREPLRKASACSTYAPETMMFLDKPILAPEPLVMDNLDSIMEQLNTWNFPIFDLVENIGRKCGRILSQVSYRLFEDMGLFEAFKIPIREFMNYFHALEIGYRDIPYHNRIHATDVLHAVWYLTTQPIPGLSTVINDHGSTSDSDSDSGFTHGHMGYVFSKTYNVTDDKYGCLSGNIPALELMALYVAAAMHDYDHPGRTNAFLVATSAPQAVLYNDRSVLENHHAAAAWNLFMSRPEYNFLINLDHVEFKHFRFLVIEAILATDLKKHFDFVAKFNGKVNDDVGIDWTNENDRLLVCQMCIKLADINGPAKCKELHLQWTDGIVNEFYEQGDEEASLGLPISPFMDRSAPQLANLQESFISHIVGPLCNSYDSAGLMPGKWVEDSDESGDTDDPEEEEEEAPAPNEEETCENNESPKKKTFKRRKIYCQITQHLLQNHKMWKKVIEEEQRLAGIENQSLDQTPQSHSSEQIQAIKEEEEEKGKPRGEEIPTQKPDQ
Experiment: Inhibition of human recombinant PDE3A
Quick reference: IC50 of the listed items.

STRUCTURE NOTATION | IC50
CCN(CC)c1ccc(NC(=O)c2cn(Cc3c(F)cccc3Cl)c3ccc(=O)[nH]c3c2=O)cc1 | > 5000 nM

Consider the record given below.
Which IC50 is reported for this compound? O=C(Nc1ccc(N2CCOCC2)cc1)c1cn(Cc2c(F)cccc2Cl)c2ccc(=O)[nH]c2c1=O
> 1000 nM

* * *

Biological target: UniProtKB P27815
Test: Inhibition of human recombinant PDE4A4 expressed in baculovirus infected insect Sf21 cells after 30 mins by scintillation proximity assay
MEASUREMENT TYPE: IC50 (nM)

STRUCTURE NOTATION | MEASURED TARGET | READING UNIT | IC50
O=C(NCc1ccncc1)c1ccc(NC(=O)c2cn(Cc3c(F)cccc3F)c3ccc(=O)[nH]c3c2=O)cc1 | UniProtKB P27815 | nM | 430

(I) CC(=O)c1ccc(NC(=O)c2cn(Cc3c(F)cccc3Cl)c3ccc(=O)[nH]c3c2=O)cc1
(II) NS(=O)(=O)c1ccc(NC(=O)c2cn(Cc3c(F)cccc3Cl)c3ccc(=O)[nH]c3c2=O)cc1
Sort I and II by IC50 descending and give the first. Response format: the label of the selected entry.
II

(a) Nc1ccc(NC(=O)c2cn(Cc3c(F)cccc3F)c3ccc(=O)[nH]c3c2=O)cc1
(b) CNc1ccc(NC(=O)c2cn(Cc3c(F)cccc3F)c3ccc(=O)[nH]c3c2=O)cc1
Hey, which is lower on measured IC50, a or b ? Pick one; state its label.
a

* * *

Species on record: Homo sapiens
Experiment: Selectivity ratio of IC50 for human recombinant PDE4A4 to IC50 for human recombinant PDE7A1
MEASUREMENT TYPE: Ratio IC50

STRUCTURE NOTATION | Ratio IC50
CC(=O)c1ccc(NC(=O)c2cn(Cc3c(F)cccc3Cl)c3ccc(=O)[nH]c3c2=O)cc1 | 6
NC(=O)c1ccc(NC(=O)c2cn(Cc3c(F)cccc3Cl)c3ccc(=O)[nH]c3c2=O)cc1 | 6

(1) NC(=O)c1cccc(NC(=O)c2cn(Cc3c(F)cccc3Cl)c3ccc(=O)[nH]c3c2=O)c1
(2) CS(=O)(=O)c1cccc(NC(=O)c2cn(Cc3c(F)cccc3Cl)c3ccc(=O)[nH]c3c2=O)c1
Record comparison, field Ratio IC50: mark the lower of 1 and 2 . The response must carry the label of the picked entry.
1
(1: 6, 2: 24)

* * *

Biological target: High affinity 3',5'-cyclic-AMP phosphodiesterase 7A (Homo sapiens)
Sequence (Q13946 whole entry): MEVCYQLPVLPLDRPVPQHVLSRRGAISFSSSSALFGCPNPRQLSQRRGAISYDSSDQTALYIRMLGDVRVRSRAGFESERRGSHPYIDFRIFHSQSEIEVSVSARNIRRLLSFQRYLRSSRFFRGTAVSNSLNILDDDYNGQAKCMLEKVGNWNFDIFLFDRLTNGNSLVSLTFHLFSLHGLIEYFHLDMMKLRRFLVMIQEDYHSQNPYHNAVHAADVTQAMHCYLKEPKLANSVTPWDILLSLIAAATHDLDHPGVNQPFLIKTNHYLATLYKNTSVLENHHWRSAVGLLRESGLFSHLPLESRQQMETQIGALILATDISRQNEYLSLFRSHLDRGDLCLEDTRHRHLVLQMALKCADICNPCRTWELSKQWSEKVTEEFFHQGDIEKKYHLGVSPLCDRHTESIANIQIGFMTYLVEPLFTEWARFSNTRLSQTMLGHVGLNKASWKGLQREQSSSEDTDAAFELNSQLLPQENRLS
Assay: Inhibition of human recombinant PDE7A1 expressed in baculovirus infected insect Sf21 cells after 30 mins by scintillation proximity assay
pIC50: −log10 of the molar value.
MEASUREMENT TYPE: pIC50

STRUCTURE NOTATION | pIC50
O=C(Nc1ccc(N2CCCCC2)cc1)c1cn(Cc2c(F)cccc2F)c2ccc(=O)[nH]c2c1=O | 6.91

(I) COc1cc(NC(=O)c2cn(Cc3ccccc3Cl)c3ccc(=O)[nH]c3c2=O)cc(OC)c1OC
(II) O=C(Nc1ccc(S(=O)(=O)Nc2nccs2)cc1)c1cn(Cc2c(F)cccc2F)c2ccc(=O)[nH]c2c1=O
(III) O=C(Nc1ccc(C(F)(F)F)cc1)c1cn(Cc2c(F)cccc2F)c2ccc(=O)[nH]c2c1=O
(IV) CN(C)c1ccc(NC(=O)c2cn(Cc3c(F)cccc3F)c3ccc(=O)[nH]c3c2=O)cc1
Hello, I need these entries ordered by pIC50, highest reading first. Thanks! Write the labels out in the order the request specifies.
II, IV, I, III

* * *

Measured pIC50 values are reported for all entries that follow.
Biological target: 3',5'-cyclic-AMP phosphodiesterase 4A (Homo sapiens, UniProt P27815)
Sequence (P27815 whole entry): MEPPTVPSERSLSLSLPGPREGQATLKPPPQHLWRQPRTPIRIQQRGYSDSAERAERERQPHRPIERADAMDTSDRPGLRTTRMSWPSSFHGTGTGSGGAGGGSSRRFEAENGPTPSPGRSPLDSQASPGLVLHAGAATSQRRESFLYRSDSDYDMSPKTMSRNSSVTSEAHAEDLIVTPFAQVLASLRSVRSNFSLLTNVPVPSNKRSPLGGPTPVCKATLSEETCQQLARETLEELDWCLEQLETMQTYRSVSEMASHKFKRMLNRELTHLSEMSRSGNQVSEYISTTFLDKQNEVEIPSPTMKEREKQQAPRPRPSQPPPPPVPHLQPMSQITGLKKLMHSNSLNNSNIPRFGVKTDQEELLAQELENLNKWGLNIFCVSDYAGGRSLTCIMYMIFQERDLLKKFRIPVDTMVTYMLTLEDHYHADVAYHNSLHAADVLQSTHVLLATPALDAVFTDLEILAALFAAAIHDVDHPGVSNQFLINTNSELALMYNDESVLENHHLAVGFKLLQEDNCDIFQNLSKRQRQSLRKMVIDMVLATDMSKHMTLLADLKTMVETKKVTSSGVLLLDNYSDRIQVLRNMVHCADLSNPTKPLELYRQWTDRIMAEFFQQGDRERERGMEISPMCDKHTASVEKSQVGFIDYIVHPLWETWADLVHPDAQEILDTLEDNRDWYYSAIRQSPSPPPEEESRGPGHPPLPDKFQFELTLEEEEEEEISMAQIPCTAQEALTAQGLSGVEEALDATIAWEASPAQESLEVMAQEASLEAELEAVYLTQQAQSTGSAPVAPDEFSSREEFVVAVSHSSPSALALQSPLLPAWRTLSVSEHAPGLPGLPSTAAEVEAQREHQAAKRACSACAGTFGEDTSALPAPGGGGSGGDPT
Assay: Inhibition of human recombinant PDE4A4 expressed in baculovirus infected insect Sf21 cells after 30 mins by scintillation proximity assay
pIC50: −log10 of the molar value.

STRUCTURE NOTATION | pIC50
O=C(Nc1ccc(OC(F)F)cc1)c1cn(Cc2c(F)cccc2F)c2ccc(=O)[nH]c2c1=O | 6.25

For COc1cc(NC(=O)c2cn(Cc3c(F)cccc3F)c3ccc(=O)[nH]c3c2=O)cc(OC)c1 , what is its reported pIC50?
< 6.00

Quick one: pIC50 for COc1cc(NC(=O)c2cn(Cc3ccc(F)cc3Cl)c3ccc(=O)[nH]c3c2=O)cc(OC)c1OC ?
< 6.00

* * *

Target: 3',5'-cyclic-AMP phosphodiesterase 4A (Homo sapiens)
Test: Inhibition of human recombinant PDE4A4 expressed in baculovirus infected insect Sf21 cells after 30 mins by scintillation proximity assay
pIC50: −log10 of the molar value.
MEASUREMENT TYPE: pIC50

Before answering, review these 2 worked examples.
STRUCTURE NOTATION | pIC50
NS(=O)(=O)c1ccc(NC(=O)c2cn(Cc3c(F)cccc3F)c3ccc(=O)[nH]c3c2=O)cc1 | 6.34
CC(=O)Nc1ccc(NC(=O)c2cn(Cc3c(F)cccc3Cl)c3ccc(=O)[nH]c3c2=O)cc1 | 6.44

(a) CS(=O)(=O)c1cccc(NC(=O)c2cn(Cc3c(F)cccc3Cl)c3ccc(=O)[nH]c3c2=O)c1
(b) NC(=O)c1cccc(NC(=O)c2cn(Cc3c(F)cccc3Cl)c3ccc(=O)[nH]c3c2=O)c1
(c) CS(=O)(=O)c1ccc(NC(=O)c2cn(Cc3c(F)cccc3Cl)c3ccc(=O)[nH]c3c2=O)cc1
(d) CC(=O)Nc1ccc(NC(=O)c2cn(Cc3c(F)cccc3F)c3ccc(=O)[nH]c3c2=O)cc1
(e) O=C(Nc1c(F)cccc1F)c1cn(Cc2c(F)cccc2F)c2ccc(=O)[nH]c2c1=O
Output the entries ranked by pIC50 from maximum down to minimum. Please reply with the labels ordered as requested. Many thanks.
c, e, d, b, a
(c: 7.14, e: 6.66, d: 6.44, b: 6.24, a: 5.85)

(I) COc1cc(NC(=O)c2cn(Cc3c(Cl)cccc3Cl)c3ccc(=O)[nH]c3c2=O)cc(OC)c1OC
(II) O=C(Nc1ccc(S(=O)(=O)Nc2nccs2)cc1)c1cn(Cc2c(F)cccc2Cl)c2ccc(=O)[nH]c2c1=O
I or II : whose pIC50 is greater? Record your answer as the label of the chosen record.
II
(II: 6.56, I: 6.01)

(1) O=C(O)c1ccc(NC(=O)c2cn(Cc3c(F)cccc3F)c3ccc(=O)[nH]c3c2=O)cc1
(2) CN(C)c1ccc(NC(=O)c2cn(Cc3c(F)cccc3Cl)c3ccc(=O)[nH]c3c2=O)cc1
(3) NC(=O)c1ccc(NC(=O)c2cn(Cc3c(F)cccc3Cl)c3ccc(=O)[nH]c3c2=O)cc1
Put the items in sequence by pIC50, from largest down. # the answer lists labels in the order requested
3, 2, 1
(3: 7.05, 2: 6.40, 1: 5.82)

(I) O=C(Nc1ccc(N2CCOCC2)cc1)c1cn(Cc2c(F)c(F)cc(F)c2F)c2ccc(=O)[nH]c2c1=O
(II) CNC(=O)c1ccc(NC(=O)c2cn(Cc3c(F)cccc3Cl)c3ccc(=O)[nH]c3c2=O)cc1
Which value of pIC50 is smaller, the one for I or the one for II ? Your choice should be expressed through its label.
I

* * *

Listed here are compounds together with their documented pIC50.
Target: Dual specificity calcium/calmodulin-dependent 3',5'-cyclic nucleotide phosphodiesterase 1B (Homo sapiens)
Sequence (Q01064 whole entry): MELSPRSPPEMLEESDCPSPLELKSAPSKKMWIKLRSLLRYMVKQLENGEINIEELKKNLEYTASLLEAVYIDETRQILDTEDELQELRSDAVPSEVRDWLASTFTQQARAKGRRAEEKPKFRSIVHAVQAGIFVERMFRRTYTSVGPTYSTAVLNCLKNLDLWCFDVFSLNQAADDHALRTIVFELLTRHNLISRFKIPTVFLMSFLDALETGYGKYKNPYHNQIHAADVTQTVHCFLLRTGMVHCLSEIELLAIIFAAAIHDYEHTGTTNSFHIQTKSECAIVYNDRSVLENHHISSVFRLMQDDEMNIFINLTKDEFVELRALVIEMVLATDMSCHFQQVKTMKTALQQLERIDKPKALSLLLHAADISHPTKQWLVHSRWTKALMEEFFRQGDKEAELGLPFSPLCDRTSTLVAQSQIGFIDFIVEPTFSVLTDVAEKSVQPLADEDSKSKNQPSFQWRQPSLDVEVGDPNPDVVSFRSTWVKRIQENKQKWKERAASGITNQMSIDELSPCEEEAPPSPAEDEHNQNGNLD
Assay: Inhibition of human recombinant PDE1B
pIC50: −log10 of the molar value.

STRUCTURE NOTATION | pIC50
CCN(CC)c1ccc(NC(=O)c2cn(Cc3c(F)cccc3Cl)c3ccc(=O)[nH]c3c2=O)cc1 | < 5.30

Below: the item to evaluate.
Which value of pIC50 has been reported for O=C(Nc1ccc(N2CCOCC2)cc1)c1cn(Cc2c(F)cccc2Cl)c2ccc(=O)[nH]c2c1=O in the records?
< 6.00

* * *

Molecular target: 3',5'-cyclic-AMP phosphodiesterase 4A (Homo sapiens, UniProt P27815)
Test: Inhibition of human recombinant PDE4A4 expressed in baculovirus infected insect Sf21 cells after 30 mins by scintillation proximity assay
pIC50: −log10 of the molar value.
MEASUREMENT TYPE: pIC50

STRUCTURE NOTATION | pIC50
O=C(Nc1ccc(C(=O)N2CCOCC2)cc1)c1cn(Cc2c(F)cccc2F)c2ccc(=O)[nH]c2c1=O | 5.97

(a) NC(=O)c1ccc(NC(=O)c2cn(Cc3c(F)cccc3F)c3ccc(=O)[nH]c3c2=O)cc1
(b) COc1cc(NC(=O)c2cn(Cc3c(F)cccc3F)c3ccc(=O)[nH]c3c2=O)cc(OC)c1OC
Please let me know which one, a or b , has a lower measured pIC50 value. Kindly give the label for the entry you pick.
b
(b: 6.29, a: 6.70)
